Measured DC50 accompanies every entry in the list below.
Molecular target: SHP2 (Homo sapiens)
Construct: endogenous in cells; host or cells: MV 411
Sequence (Q06124 whole entry): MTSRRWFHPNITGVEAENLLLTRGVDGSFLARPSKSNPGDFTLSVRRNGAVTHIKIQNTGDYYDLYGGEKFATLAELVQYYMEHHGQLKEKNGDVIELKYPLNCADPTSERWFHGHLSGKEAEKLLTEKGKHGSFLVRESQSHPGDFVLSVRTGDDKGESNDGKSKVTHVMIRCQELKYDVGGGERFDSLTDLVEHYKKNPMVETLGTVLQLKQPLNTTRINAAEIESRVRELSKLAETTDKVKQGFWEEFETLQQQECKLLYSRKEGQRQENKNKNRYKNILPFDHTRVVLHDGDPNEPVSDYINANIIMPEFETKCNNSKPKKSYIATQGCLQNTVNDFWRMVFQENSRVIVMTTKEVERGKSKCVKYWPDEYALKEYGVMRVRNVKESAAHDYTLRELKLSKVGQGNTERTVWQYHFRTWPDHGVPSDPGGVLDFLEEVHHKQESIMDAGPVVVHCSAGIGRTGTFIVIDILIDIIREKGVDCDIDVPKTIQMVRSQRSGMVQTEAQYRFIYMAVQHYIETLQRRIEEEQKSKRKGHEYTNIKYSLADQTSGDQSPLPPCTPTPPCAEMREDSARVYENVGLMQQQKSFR
Assay: SHP2 degradation in MV 411 cells by Western blot (median degradation concentration)
Type: cell-based
Conditions: 24 hours with compound, SHP-2 antibody Western blot, concentration of the median degradation from exposure gray scale

Compound	Comparison Operator	DC50 [nM]
CCOc1cc2oc(-c3ccc(OCCOCCOCCOCCOc4cccc5c4C(=O)N(C4CCC(=O)NC4=O)C5=O)cc3Cl)cc(=O)c2cc1-c1cc(C(N)=O)cc(-c2c[nH]cn2)c1 (centres unmarked)	>	250
CCOc1cc2oc(-c3ccc(NCCOCCOCCOCCOc4cccc5c4C(=O)N(C4CCC(=O)NC4=O)C5=O)cc3Cl)cc(=O)c2cc1-c1cc(C=O)ccc1F (centres unmarked)	=	50
CCOc1cc2oc(-c3ccc(NCCOCCOCCOCCOc4cccc5c4C(=O)N(C4CCC(=O)N(COC(=O)CC6CCCCC6)C4=O)C5=O)cc3Cl)cc(=O)c2cc1-c1cccc(C(C)=O)c1 (centres unmarked)	=	75
CCOc1cc2oc(-c3ccc(NCCOCCOCCOCCOc4cccc5c4C(=O)N(C4CCC(=O)NC4=O)C5=O)cc3Cl)cc(=O)c2cc1-c1cccc(C(C)=O)c1 (centres unmarked)	=	25
CCOc1cc2oc(-c3ccc(OCCOCCOCCOCCOc4cccc5c4C(=O)N(C4CCC(=O)NC4=O)C5=O)cc3Cl)cc(=O)c2cc1-c1cc(C(N)=O)cc(S(C)(=O)=O)c1 (centres unmarked)	=	500
